B1: Steroid hormone receptor ERR2, residues 100 to 176; numbered along this chain, O95718 (parent)
chain: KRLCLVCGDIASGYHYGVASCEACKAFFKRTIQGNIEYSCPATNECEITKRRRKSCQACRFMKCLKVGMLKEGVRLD

Variants of: B1
Assay: abundance fitness (aPCA) (normalised: wild type 0, dead -1); higher = more abundant; growth selection in yeast, the domain comes from the species named
Conditions: Homo sapiens
quantity.kind: abundance fitness
// return just the number, without any unit appended

Enquiry: Query: abundance fitness; subject: "K1R"
Return: -0.286

Enquiry: What abundance fitness value was documented for this variant, "T43R" ?
Return: 0.043

Enquiry: Given the variant "I10K" , what is its reported abundance fitness?
Return: 0.037

Enquiry: Suppose we examine the variant "S12P" ; what abundance fitness value has been reported?
Return: -0.161

Enquiry: Given the entry "V18R" , report its measured abundance fitness.
Return: -0.384

Enquiry: Name the reported abundance fitness value associated with the variant "C40W"
Return: -0.94

Enquiry: Look at this variant and give its reported abundance fitness. "G8Q"
Return: 0.086

Enquiry: What does the record list as abundance fitness for "T31F" ?
Return: -1.1

Enquiry: If you can, please state the reported abundance fitness value of "K50F" .
Return: 0.047

Enquiry: # lookup: abundance fitness of "C24S"
Return: -0.869

Enquiry: Can you share its abundance fitness? I mean this variant: "R30M"
Return: -0.355

Enquiry: Form field: reported abundance fitness of "V6E"
Return: -0.612

Enquiry: If you can, please state the reported abundance fitness value of "T49F" .
Return: -0.254

Enquiry: Would you mind telling me what abundance fitness value was observed for "F28R" ?
Return: -0.757

Enquiry: Which abundance fitness reading was recorded for the variant "C59L" ?
Return: -0.873

Enquiry: I am curious: what abundance fitness value has been reported for "L3F" ?
Return: 0.284

Enquiry: Report abundance fitness for "G17H" please.
Return: -0.356

Enquiry: Please report the recorded abundance fitness for "E37K" .
Return: -0.532

Enquiry: Entry under review: "R2E" . Reported abundance fitness?
Return: -0.105

Enquiry: Please give the measured abundance fitness for this variant: "I10Y"
Return: -0.029

Enquiry: Bench note: what abundance fitness did "R53W" show?
Return: -0.084

Enquiry: Consider the variant shown here: "C46G" What is its recorded abundance fitness?
Return: -0.679

Enquiry: Sample "I36K" — what was its abundance fitness?
Return: -0.129

Enquiry: Return reported abundance fitness; argument: "S55A"
Return: 0.278

Enquiry: Need abundance fitness, item "R30N"
Return: -0.381

Enquiry: Item under review: "K29C" . Reported abundance fitness?
Return: -0.335

Enquiry: // lookup abundance fitness for "C64E"
Return: -0.561

Enquiry: Need abundance fitness, item "P41L"
Return: -0.134

Enquiry: What abundance fitness value was documented for this variant, "R52V" ?
Return: -0.003
